Tested on: LOX IMVI melanoma
Assay: NCI-60 one-dose screen, 48 h (100 = growth as untreated, 0 = no growth, -100 = all killed)
Conditions: 10 µM unless noted
Compounds without any hit were thinned out: in the full panel of roughly 83,000, 20% have a hit.

# COMPOUND, UNIT_STRING, growth
measured = [
    ("CCCCCCC[C@@H](O)CC(=O)N[C@H](CCCCN)C(=O)N[C@H](Cc1c[nH]c2ccccc12)C(=O)NC(CCCCN)C(=O)N[C@H](CC(C)C)C(=O)N[C@H](Cc1ccccc1)C(=O)N[C@H](CCCCN)C(=O)N[C@H](CCCCN)C(=O)N[C@H](CC(C)C)C(=O)N1CCCC1C(=O)N[C@H](CCCCN)C(=O)N[C@H](Cc1ccccc1)C(=O)N[C@H](CC(C)C)C(=O)N[C@H](Cc1c[nH]cn1)C(=O)N[C@H](CC(C)C)C(=O)N[C@H](C)C(=O)N[C@H](CCCCN)C(=O)N[C@H](CCCCN)C(=O)N[C@H](Cc1ccccc1)C(=O)O (stereo partly specified)", "%", -38.6),
    ("C=C1C(=O)O[C@H]2[C@H]1CC/C(COC(=O)NCCc1ccc(Br)cc1)=C\\CC[C@@]1(C)O[C@@H]21", "%", -68.2),
    ("O=C(/C=C/c1ccccc1)n1c(-c2ccc(Cl)cc2)nc2ccccc21", "%", -82.9),
    ("COc1ccc(S(=O)(=O)Nc2cc(/C=C\\c3cc(OC)c(OC)c(OC)c3)cc(OC)c2OC)cc1OC", "%", 48.2),
    ("CC(=O)/C=C/c1cc2cc(Cl)ccc2[nH]c1=O", "%", 69.1),
    ("O=C(CNc1c(Cl)cccc1Cl)Nc1ccc(-c2nc3ccccc3s2)cc1", "%", -49.3),
]
